Data provenance: PubChem BioAssay AID1159580

assay: chemical genetic growth profiling, strain panel (AID 1159580);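 further: tested at 20 µM; growth read once vehicle control cultures reached saturation at 30 °C; 1 = growth at the plate median or of vehicle wells; lower values mean less growth of the strain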; conditions: S. cerevisiae deletion strains, growth OD, locus YMR125W, strain sto1, stronger effect = lower value
About 2,000 (36%) of roughly 5,500 compounds were called active. Another 18% or so got no clear call; they are omitted. This is one part of the list.
result_type: normalized growth

[[record]]
molecule = "COC(=O)C(N)CS (centres undefined)"
result_type = "normalized growth"
readout_number = 1.01

[[record]]
molecule = "CC(=O)O[C@@H]1CC2C(C)(CC[C@H](O)C2(C)C)C2CC[C@]3(C)C(=CC(=O)O[C@H]3c3ccoc3)C21C (some centres undefined)"
result_type = "normalized growth"
readout_number = 1.02

[[record]]
molecule = "NC[C@@H]1O[C@H](O[C@@H]2[C@@H](CO)OC(O[C@@H]3[C@@H](O)[C@H](N)C[C@H](N)[C@H]3O[C@H]3O[C@H](CO)[C@@H](O)[C@H](O)[C@H]3N)[C@@H]2O)[C@H](N)[C@@H](O)[C@@H]1O (some centres undefined)"
result_type = "normalized growth"
readout_number = 0.998

[[record]]
molecule = "O=c1c(-c2ccc(O)cc2)coc2c(C3O[C@H](CO)[C@@H](O)[C@H](O)[C@H]3O)c(O)ccc12 (some centres undefined)"
result_type = "normalized growth"
readout_number = 0.954

[[record]]
molecule = "C[C@@H]1CC[C@@]23CCC4(C)[C@@](C=CC5[C@@]6(C)CC[C@H](O)C(C)(C)C6CC[C@]54C)(OC2=O)C3[C@H]1C (some centres undefined)"
result_type = "normalized growth"
readout_number = 1.01

[[record]]
molecule = "O=c1c2cc(O)c(O)cc2oc2cc(O)c(C3O[C@H](CO)[C@H](O)[C@@H](O)[C@H]3O)c(O)c12 (some centres undefined)"
result_type = "normalized growth"
readout_number = 1.07

[[record]]
molecule = "C=CCSSSCC=C"
result_type = "normalized growth"
readout_number = 0.946

[[record]]
molecule = "CC1(C)C(=O)CC[C@@]2(C)C1C[C@@H](O)[C@@]1(C)C3=CC(=O)O[C@@H](c4ccoc4)[C@]3(C)CCC21 (some centres undefined)"
result_type = "normalized growth"
readout_number = 1.04

[[record]]
molecule = "C=CCSC[C@@H](N)C(=O)O"
result_type = "normalized growth"
readout_number = 0.986

[[record]]
molecule = "COc1cc(C(=O)N2CCOCC2)cc(OC)c1OC"
result_type = "normalized growth"
readout_number = 0.993

[[record]]
molecule = "C[C@@H](CO)NC(=O)C1C=C2c3cccc4[nH]cc(c34)C[C@H]2N(C)C1 (some centres undefined)"
result_type = "normalized growth"
readout_number = 1.01

[[record]]
molecule = "C=CCSCC=C"
result_type = "normalized growth"
readout_number = 0.966

[[record]]
molecule = "CO[C@H]1[C@@H](O)[C@@H](C)O[C@H](O[C@H]2CCC3(C)C4CCC5(C)[C@@H](C6=CC(=O)OC6)CC[C@]5(O)[C@@H]4CC[C@]3(O)C2)[C@@H]1O (some centres undefined)"
result_type = "normalized growth"
readout_number = 1.03

[[record]]
molecule = "COc1c(O)cc2c(c1O)[C@H]1O[C@H](CO)[C@@H](O)[C@H](O)[C@@H]1OC2=O"
result_type = "normalized growth"
readout_number = 1.02

[[record]]
molecule = "NS(=O)(=O)c1cc2c(cc1C(F)(F)F)NC(Cc1ccccc1)NS2(=O)=O (centres undefined)"
result_type = "normalized growth"
readout_number = 1.01

[[record]]
molecule = "CC1(C)O[C@@H]2CC3C4C[C@H](F)C5=CC(=O)CC[C@]5(C)C4[C@@H](O)C[C@]3(C)[C@]2(C(=O)CO)O1 (some centres undefined)"
result_type = "normalized growth"
readout_number = 1.02

[[record]]
molecule = "C=CCSSCC=C"
result_type = "normalized growth"
readout_number = 1.01

[[record]]
molecule = "CC(C)=CC1C(CO)C1(C)C (centres undefined)"
result_type = "normalized growth"
readout_number = 1.03

[[record]]
molecule = "COc1ccccc1N1CCN(CCCNc2cc(=O)n(C)c(=O)n2C)CC1"
result_type = "normalized growth"
readout_number = 1.01


* * *

test: chemical genetic growth profiling, strain panel (AID 1159580);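 further: tested at 20 µM; growth read once vehicle control cultures reached saturation at 30 °C; 1 = growth at the plate median or of vehicle wells; lower values mean less growth of the strain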; details: S. cerevisiae deletion strains, growth OD, locus YDL035C, strain GPR1, stronger effect = lower value
The campaign covered roughly 5,500 compounds. About 2,000 (36%) were called active. Roughly 18% stayed inconclusive and do not appear here. Some of the results follow.
result_type: normalized growth

[[record]]
compound = "CC1Cc2ccccc2N1NC(=O)c1ccc(Cl)c(S(N)(=O)=O)c1 (stereo not given)"
readout_number = 1.02

[[record]]
compound = "Cc1ccc(C(C)C)c(O)c1C(=O)O"
readout_number = 0.997

[[record]]
compound = "CC1CCCC(C)N1NC(=O)c1ccc(Cl)c(S(N)(=O)=O)c1 (stereo not given)"
readout_number = 1.01

[[record]]
compound = "CO[C@@H]1[C@@H](OC(N)=O)[C@@H](O)[C@H](Oc2ccc3c(O)c(NC(=O)c4ccc(O)c(CC=C(C)C)c4)c(=O)oc3c2C)OC1(C)C"
readout_number = 1.01

[[record]]
compound = "COc1c(O)cc2c(c1O)[C@H]1O[C@H](CO)[C@@H](O)[C@H](O)[C@@H]1OC2=O"
readout_number = 1.02


* * *

assay: chemical genetic growth profiling, strain panel (AID 1159580);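 further: tested at 20 µM; growth read once vehicle control cultures reached saturation at 30 °C; 1 = growth at the plate median or of vehicle wells; lower values mean less growth of the strain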; conditions: S. cerevisiae deletion strains, growth OD, locus YER155C, strain BEM2, stronger effect = lower value
Among all 5,500 compounds or so, about 2,000 (36%) were called active. About 18% were inconclusive and are not listed. This is one part of the list.
result_type: normalized growth

[[record]]
compound = "O=c1c(O)cc([C@H]2Oc3cc(O)cc(O)c3C[C@H]2O)cc2c([C@H]3Oc4cc(O)cc(O)c4C[C@H]3O)cc(O)c(O)c12"
readout_number = 1.05

[[record]]
compound = "C/C=C/CC(C)C(O)C1C(=O)NC(CC)C(=O)N(C)CC(=O)N(C)C(CC(C)C)C(=O)NC(C(C)C)C(=O)N(C)C(CC(C)C)C(=O)NC(C)C(=O)NC(C)C(=O)N(C)C(CC(C)C)C(=O)N(C)C(CC(C)C)C(=O)N(C)C(C(C)C)C(=O)N1C (centres undefined)"
readout_number = 1.03

[[record]]
compound = "CC1(C)[C@@H]2CC[C@@]1(C)C(=O)C2"
readout_number = 0.982

[[record]]
compound = "NCCCN"
readout_number = 0.982


* * *

Each record here notes measured normalized growth.
test: chemical genetic growth profiling, strain panel (AID 1159580);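 further: tested at 20 µM; growth read once vehicle control cultures reached saturation at 30 °C; 1 = growth at the plate median or of vehicle wells; lower values mean less growth of the strain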; conditions: S. cerevisiae deletion strains, growth OD, locus YMR129W, stronger effect = lower value
Hit rate of the full screen: of about 5,500 compounds, about 2,000 (36%) were called active. Inconclusive results (about 18%) are left out. The list shows a part of the results.
result_type: normalized growth

[[record]]
compound = "CN(C)CC[C@H](c1ccc(Cl)cc1)c1ccccn1"
readout_number = 1

[[record]]
compound = "COC(=O)N/N=C\\c1c[n+]([O-])c2ccccc2[n+]1[O-]"
readout_number = 0.984

[[record]]
compound = "Cc1c(OCC(F)(F)F)ccnc1CS(=O)c1nc2ccccc2[nH]1 (stereo not drawn)"
readout_number = 1.02

[[record]]
compound = "CO[C@H]1[C@@H](O)[C@@H](C)O[C@H](O[C@H]2CCC3(C)C4CCC5(C)[C@@H](C6=CC(=O)OC6)CC[C@]5(O)[C@@H]4CC[C@]3(O)C2)[C@@H]1O (stereo partly drawn)"
readout_number = 1.02

[[record]]
compound = "Cc1cc(N)c2ccccc2[n+]1CCCCCCCCCC[n+]1c(C)cc(N)c2ccccc21"
readout_number = 0.069

[[record]]
compound = "Cc1ccccc1N1C(=O)c2cc(S(N)(=O)=O)c(Cl)cc2NC1C (stereo not drawn)"
readout_number = 0.997

[[record]]
compound = "COC1CC(O[C@H]2CC[C@]3(C=O)C4CC[C@]5(C)C(C6=CC(=O)OC6)CC[C@]5(O)C4CC[C@]3(O)C2)OC(C)C1O (stereo partly drawn)"
readout_number = 0.989

[[record]]
compound = "C/C=C/CC(C)C(O)C1C(=O)NC(CC)C(=O)N(C)CC(=O)N(C)C(CC(C)C)C(=O)NC(C(C)C)C(=O)N(C)C(CC(C)C)C(=O)NC(C)C(=O)NC(C)C(=O)N(C)C(CC(C)C)C(=O)N(C)C(CC(C)C)C(=O)N(C)C(C(C)C)C(=O)N1C (stereo not drawn)"
readout_number = 1.01

[[record]]
compound = "Cc1c(C(N)=O)cc([N+](=O)[O-])cc1[N+](=O)[O-]"
readout_number = 1.02

[[record]]
compound = "CCCCCC(O)C1C(=O)OC(C)C(O)/C=C/C=C/C=C/C=C/C=C(\\C)C(O)CC(O)CC(O)CC(O)CC(O)CC(O)CC1O (stereo not drawn)"
readout_number = 0.977

[[record]]
compound = "COc1ccc(-c2cc(=O)c3c(O)cc(O)cc3o2)cc1"
readout_number = 0.991

[[record]]
compound = "COc1cccc2c1CCC1=CC(=O)CC[C@@]12C"
readout_number = 0.991

[[record]]
compound = "CO[C@@H]1[C@@H](OC(N)=O)[C@@H](O)[C@H](Oc2ccc3c(O)c(NC(=O)c4ccc(O)c(CC=C(C)C)c4)c(=O)oc3c2C)OC1(C)C"
readout_number = 1.03

[[record]]
compound = "NC(=O)c1ccc([N+](=O)[O-])cc1Cl"
readout_number = 0.975

[[record]]
compound = "CC1CCCC(C)N1NC(=O)c1ccc(Cl)c(S(N)(=O)=O)c1 (stereo not drawn)"
readout_number = 1.02

[[record]]
compound = "COc1ccc(-c2cc(=O)c3c(O)c(OC)c(O[C@H]4O[C@H](CO[C@@H]5O[C@@H](C)[C@H](O)[C@@H](O)[C@H]5O)[C@@H](O)[C@H](O)[C@H]4O)cc3o2)cc1"
readout_number = 0.996

[[record]]
compound = "COc1cc(-c2cc(=O)c3c(O)c(OC)c(OC)c(OC)c3o2)cc(OC)c1OC"
readout_number = 1.01

[[record]]
compound = "COC(=O)CC1C(C)(C)C(OC(C)=O)[C@@H]2[C@@H](OC(C)=O)[C@]34O[C@@]2(O)[C@]1(C)C3CC[C@]1(C)C4=CC(=O)O[C@H]1c1ccoc1 (stereo partly drawn)"
readout_number = 0.996

